# EXPERIMENT SUMMARY: activity coefficient (dimensionless); of the first substance listed, at infinite dilution; xn = mol fraction of the nth substance listed
# REPORTED CONDITIONS: 328.15 K; 101.33 kPa; Liquid; Chromatography; x1 = 0
MEASUREMENT TYPE: activity coefficient

- CCOC(C)(C)C [2-ethoxy-2-methylpropane] + CC[N+]1(C)CCOCC1.N#CN=C=[N-]: 105
- C=CCCCCCC [oct-1-ene] + CC[N+]1(C)CCOCC1.N#CN=C=[N-]: 445
- CCCO [propan-1-ol] + CC[N+]1(C)CCOCC1.N#CN=C=[N-]: 1.85
- C#CCCCCCC [1-octyne] + CC[N+]1(C)CCOCC1.N#CN=C=[N-]: 84.6
- C1=CCCCC1 [cyclohexene] + CC[N+]1(C)CCOCC1.N#CN=C=[N-]: 50
- C#CCCC [1-pentyne] + CC[N+]1(C)CCOCC1.N#CN=C=[N-]: 14.8
- CCOC(C)=O [ethyl acetate] + CC[N+]1(C)CCOCC1.N#CN=C=[N-]: 5.93
- C=Cc1ccccc1 [styrene] + CC[N+]1(C)CCOCC1.N#CN=C=[N-]: 6.59
- C=COC(C)=O [vinyl acetate] + CC[N+]1(C)CCOCC1.N#CN=C=[N-]: 4.41

---

# EXPERIMENT SUMMARY: activity coefficient (dimensionless); of the first substance listed, at infinite dilution; xn = mol fraction of the nth substance listed
# REPORTED CONDITIONS: 318.15 K; 101.33 kPa; Liquid; Chromatography; x1 = 0
MEASUREMENT TYPE: activity coefficient

- CCCC=O [butanal] + CC[N+]1(C)CCOCC1.N#CN=C=[N-]: 3.51
- C1CCCCCCC1 [cyclooctane] + CC[N+]1(C)CCOCC1.N#CN=C=[N-]: 313
- CCCC(C)=O [pentan-2-one] + CC[N+]1(C)CCOCC1.N#CN=C=[N-]: 5.08
- Cc1ccccc1C [1,2-dimethylbenzene] + CC[N+]1(C)CCOCC1.N#CN=C=[N-]: 10.8
- O [water] + CC[N+]1(C)CCOCC1.N#CN=C=[N-]: 0.324
- CCC(=O)CC [pentan-3-one] + CC[N+]1(C)CCOCC1.N#CN=C=[N-]: 5.23
- CCC(=O)OC [methyl propanoate] + CC[N+]1(C)CCOCC1.N#CN=C=[N-]: 5.12
- CCCCCCCC [octane] + CC[N+]1(C)CCOCC1.N#CN=C=[N-]: 1130
- CCC(C)O (configuration not stated) [butan-2-ol] + CC[N+]1(C)CCOCC1.N#CN=C=[N-]: 2.98
- Cc1cccc(C)c1 [1,3-dimethylbenzene] + CC[N+]1(C)CCOCC1.N#CN=C=[N-]: 13.8
- C#CCCCC [1-hexyne] + CC[N+]1(C)CCOCC1.N#CN=C=[N-]: 24.8
- COC(C)=O [methyl ethanoate] + CC[N+]1(C)CCOCC1.N#CN=C=[N-]: 2.86

---

# EXPERIMENT SUMMARY: activity coefficient (dimensionless); of the first substance listed, at infinite dilution; xn = mol fraction of the nth substance listed
# REPORTED CONDITIONS: 338.15 K; 101.33 kPa; Liquid; Chromatography; x1 = 0
Use 20 as the dividing line for activity coefficient, with the line itself on the criterion met side and lower values as criterion not met.

* CCOCC [diethyl ether] + CC[N+]1(C)CCOCC1.N#CN=C=[N-] | criterion met
* CCCCCCC [heptane] + CC[N+]1(C)CCOCC1.N#CN=C=[N-] | criterion met
* CCc1ccccc1 [ethylbenzene] + CC[N+]1(C)CCOCC1.N#CN=C=[N-] | criterion not met
* CC#N [acetonitrile] + CC[N+]1(C)CCOCC1.N#CN=C=[N-] | criterion not met
* CC1CCCCC1 [methylcyclohexane] + CC[N+]1(C)CCOCC1.N#CN=C=[N-] | criterion met
* CCCC(=O)OC [methyl butanoate] + CC[N+]1(C)CCOCC1.N#CN=C=[N-] | criterion not met
* CCCCCO [pentan-1-ol] + CC[N+]1(C)CCOCC1.N#CN=C=[N-] | criterion not met
* CCCCO [butan-1-ol] + CC[N+]1(C)CCOCC1.N#CN=C=[N-] | criterion not met
* CCC(=O)OC [methyl propanoate] + CC[N+]1(C)CCOCC1.N#CN=C=[N-] | criterion not met
* C1CCCCC1 [cyclohexane] + CC[N+]1(C)CCOCC1.N#CN=C=[N-] | criterion met
* c1ccsc1 [thiophene] + CC[N+]1(C)CCOCC1.N#CN=C=[N-] | criterion not met
* CC(C)OC(C)C [diisopropyl ether] + CC[N+]1(C)CCOCC1.N#CN=C=[N-] | criterion met
* c1ccncc1 [pyridine] + CC[N+]1(C)CCOCC1.N#CN=C=[N-] | criterion not met
* CC(C)O [propan-2-ol] + CC[N+]1(C)CCOCC1.N#CN=C=[N-] | criterion not met
* C1CCCCCC1 [cycloheptane] + CC[N+]1(C)CCOCC1.N#CN=C=[N-] | criterion met
* O [water] + CC[N+]1(C)CCOCC1.N#CN=C=[N-] | criterion not met
* C=CCCCCC [1-heptene] + CC[N+]1(C)CCOCC1.N#CN=C=[N-] | criterion met
* Cc1ccc(C)cc1 [1,4-dimethylbenzene] + CC[N+]1(C)CCOCC1.N#CN=C=[N-] | criterion not met
* C=CCCCC [hex-1-ene] + CC[N+]1(C)CCOCC1.N#CN=C=[N-] | criterion met
* C=Cc1ccccc1 [styrene] + CC[N+]1(C)CCOCC1.N#CN=C=[N-] | criterion not met
* CCCc1ccccc1 [propylbenzene] + CC[N+]1(C)CCOCC1.N#CN=C=[N-] | criterion met
* CCC(C)(C)OC [2-methoxy-2-methylbutane] + CC[N+]1(C)CCOCC1.N#CN=C=[N-] | criterion met
* CCCC(C)=O [pentan-2-one] + CC[N+]1(C)CCOCC1.N#CN=C=[N-] | criterion not met
* CC(C)CC(C)(C)C [2,2,4-trimethylpentane] + CC[N+]1(C)CCOCC1.N#CN=C=[N-] | criterion met
* C#CCCC [1-pentyne] + CC[N+]1(C)CCOCC1.N#CN=C=[N-] | criterion not met
* CCOC(C)(C)C [2-ethoxy-2-methylpropane] + CC[N+]1(C)CCOCC1.N#CN=C=[N-] | criterion met
* C=COC(C)=O [vinyl acetate] + CC[N+]1(C)CCOCC1.N#CN=C=[N-] | criterion not met
